# Tested on: EKVX NSCLC
# MEASUREMENT_DESCRIPTION: NCI-60 one-dose screen, 48 h
# STUDY_CONDITIONS: 10 µM unless noted
About 83,000 compounds went through this panel and 20% of them were active in at least one assay; those are over-represented in the sample as a whole. Calls of active or inactive are those of the source. Rule for the calls: active = growth percent below 10; inactive = the rest.
Classes used: active, inactive

# COMPOUND, DISCRETE_LABEL
records = [
    ("CCc1ccc(CCC(=O)Nc2ncc(Cc3ccc(Cl)cc3)s2)o1", "inactive"),
    ("COc1ccc2nc3cc(Cl)ccc3c(NCCN)c2c1", "active"),
    ("C=CCCC(=O)N1C=CC(=O)[C@H](O)[C@@H]1/C=C/c1ccccc1", "inactive"),
    ("O=C1C(Cl)=C(NCCN2CCOCC2)C(=O)c2ncccc21", "active"),
    ("COc1cccc(/C=C/C(=O)c2cc3c(N)c(C(=O)Nc4ccccc4C)sc3nc2C)c1", "inactive"),
    ("Cc1c2cc[nH]c(=O)c2c(C)c2c1[nH]c1ccc(OC(=O)c3ccccc3)cc12", "inactive"),
    ("COc1cc2c3c(n(CCCCNCCCn4c5c(c6cc(OC)c(OC)cc6c4=O)C(=O)c4cc6c(cc4-5)OCO6)c(=O)c2cc1OC)-c1cc2c(cc1C3=O)OCO2", "inactive"),
    ("Nc1nc(C(=O)N/N=C/c2ccc(N3CCOCC3)cc2)nn1-c1ccc(S(N)(=O)=O)cc1", "inactive"),
    ("CCOC(=O)Nc1nc2ccc(SCC(C)C)cc2s1", "inactive"),
    ("Cn1cc(-c2ccc3cc(-c4ccc(CC(=O)Nc5cc(C(C)(C)C)on5)cc4)cnc3c2)cn1", "inactive"),
    ("COc1ccc(C2=CN3CC=CCC3CC2=O)cc1 (stereo unspecified)", "inactive"),
    ("COc1ccc(Nc2ncccc2NC(=O)c2cn(Cc3cccc(Oc4ccccc4)c3)nn2)cc1OC", "inactive"),
    ("Cc1[nH]c(C(=O)Nc2ccc(C(N)=O)cc2NC(C)C)c(Cl)c1Cl", "inactive"),
    ("C/C(=N\\Nc1nc(C)cs1)c1cc2ccccc2o1", "inactive"),
    ("Cc1ccccc1OCC(O)COc1ccccc1C", "inactive"),
    ("O=C(CCCCCCCCC(=O)N/N=C\\c1cc(Cl)ccc1O)N/N=C\\c1cc(Cl)ccc1O", "inactive"),
    ("COc1cc2oc(-c3cccc(NC(=O)c4ccc5c(c4)OCO5)c3)cc(=O)c2c(OC)c1OC", "inactive"),
    ("c1ccc2cc(Cn3c[n+](Cc4ccc5ccccc5c4)c4ccccc43)ccc2c1", "inactive"),
    ("NC(=O)OCCn1cc(-c2nc(-c3c[nH]c4ncccc34)cs2)c2ccccc21", "inactive"),
    ("CCN1C(=O)N(CC)C2C1NN=C1SCC(=O)N12 (stereo unspecified)", "inactive"),
    ("CCN(CC)CCNC(=O)c1ccc(-c2nc3ccc4[nH]ncc4c3c3c2CCCC3)cc1", "inactive"),
]

====

# Tested on: MCF7 breast
# MEASUREMENT_DESCRIPTION: NCI-60 one-dose screen, 48 h (100 = growth as untreated, 0 = no growth, -100 = all killed)
# STUDY_CONDITIONS: 10 µM unless noted
Compounds without any hit were thinned out: in the full panel of roughly 83,000, 20% have a hit.
Recorded growth by entry

# SMILES_STRUCTURE, growth (%)
rows = [
    ("CS(=O)(=O)Cc1cnc(C2OCCO2)s1", 96.4),
    ("C[C@@H]1O[C@@H](O[C@@H]2C[C@H](c3ccc4c(c3O)C(=O)C3=C(C4=O)[C@@]4(O)C(=O)C[C@](C)(O)C[C@@]4(O)C=C3)O[C@H](C)[C@H]2O)C[C@H](O)[C@@H]1O", 91.8),
    ("Nc1c(C(=O)Nc2cccc3ncccc23)sc2nc3c(cc12)C(=O)CCC3", 25.2),
    ("C/C(C=O)=C\\c1ccc2c(c1)OCO2", 102),
    ("CCN(C(=O)N1CCN(c2cc3c(cc2F)c(=O)c(C(=O)O)cn3C2CC2)CC1)c1nc(-c2ccc(C)cc2)cs1", 6.09),
    ("O=C(Nc1nc(C(=O)N2CCN(C(c3ccccc3)c3ccccc3)CC2)cs1)c1ccc(NC2CCCCC2)c([N+](=O)[O-])c1", 81.3),
    ("CCCCCCCC/C=C\\CCCCCCCCOc1ccccc1CC(=O)NCC[N+]1(C)CCCCC1", 80),
    ("COc1cc2c(c(OC)c1OC)C(=O)N[C@@H]1[C@@H](O)[C@@H](O)[C@H](O)C[C@@H]21", 96.1),
]
